molecular target: Mannose-6-phosphate isomerase (Homo sapiens); experiment: MPI inhibition at elevated mannose 6-phosphate – biochemical, fluorescence intensity, high mannose 6-phosphate, primary screen (AID 1220); details: recombinant PMI enzyme, coupled fluorescence intensity; at 20 µM; hits give high values
The campaign covered roughly 190,000 compounds. About 1,300 (0.68%) were called active. This is one part of a sample in which actives are shown more often than they occur.
REPORTED_ENDPOINT: inhibition (%)
Give the value, in units of %, as a plain number.

Ask: Fill in the blank: the reported inhibition of CCC(C)NCCOCCOc1ccc(C)cc1Br (stereo not drawn) is ____.
Result: 0.7

Ask: Could you do the same for CCCCCCN1C(=O)C(O)=C(C(C)=O)C1c1ccc(Cl)cc1 (stereo not drawn) , please?
Result: 3.1

Ask: Could you do the same for COc1ccc2nc(C)cc(SCC(=O)NNC(=O)COc3cccc4ccccc34)c2c1 , please?
Result: -3

Ask: Could you do the same for O=C(NC(=S)Nc1cnc2ccccc2c1)c1ccccc1 , please?
Result: 10.3

Ask: Could you do the same for C=CCOc1cc(OC)c(OC)c(OC)c1 , please?
Result: 54.8

Ask: Could you do the same for CCCCC(=O)OCC(=O)c1[nH]c(C)c(C(C)=O)c1C , please?
Result: -12

Ask: Could you do the same for CC1CCc2c(sc(NC(=O)CSc3nnc(-c4ccccc4)o3)c2C#N)C1 (stereo not drawn) , please?
Result: 57.2

Ask: Could you do the same for COc1cc(OC)cc(C(=O)OCC(=O)Nc2ccc(N3CCCCC3)cc2)c1 , please?
Result: -11.3

---

target: Mannose-6-phosphate isomerase (Homo sapiens) (UniProt P34949); test: MPI inhibition at elevated mannose 6-phosphate – biochemical, fluorescence intensity, high mannose 6-phosphate, primary screen (AID 1220); details: recombinant PMI enzyme, coupled fluorescence intensity; at 20 µM; hits give high values
Sequence (P34949 whole entry, looked up): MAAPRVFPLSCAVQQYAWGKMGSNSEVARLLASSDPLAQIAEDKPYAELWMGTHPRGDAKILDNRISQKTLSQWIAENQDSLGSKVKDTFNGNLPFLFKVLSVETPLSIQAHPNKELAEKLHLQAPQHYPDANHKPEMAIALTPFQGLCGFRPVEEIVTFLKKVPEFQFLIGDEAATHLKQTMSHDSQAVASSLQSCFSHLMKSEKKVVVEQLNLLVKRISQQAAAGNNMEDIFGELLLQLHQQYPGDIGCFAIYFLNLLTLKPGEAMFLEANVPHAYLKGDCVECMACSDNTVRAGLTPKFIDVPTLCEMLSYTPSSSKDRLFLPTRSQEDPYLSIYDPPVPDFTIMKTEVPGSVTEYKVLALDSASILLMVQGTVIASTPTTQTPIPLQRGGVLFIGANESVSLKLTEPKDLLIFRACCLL
Screen size: about 190,000 compounds; about 1,300 (0.68%) were called active. The entries come from a sample that favours actives as a whole.
I'd be grateful if you could share measured inhibition for these entries.
Give the value, in units of %, as a plain number.

Ask: Fill in the blank: the reported inhibition of CC(NC(=O)Cc1ccccc1[N+](=O)[O-])c1ccccc1 (configuration not stated) is ____.
Result: 7.4

Ask: Could you do the same for CSc1ccc(/C=N/NC(=O)CN2CCN(Cc3ccccc3Cl)CC2)cc1 , please?
Result: 0.4

Ask: Could you do the same for O=C(CSc1nc(O)cc(=O)[nH]1)N1c2ccccc2Sc2ccccc21 , please?
Result: 7.8

Ask: Could you do the same for COC(=O)COC(=O)c1ccc(Oc2nc(OC)nc(N(C)C)n2)cc1 , please?
Result: 8.1

Ask: Could you do the same for O=C(C/C=N\OCc1ccc(Cl)cc1Cl)Nc1ccccc1 , please?
Result: 15.2

Ask: Could you do the same for O=C(Nc1ccc2c(c1)OCCO2)c1cccc(S(=O)(=O)N2CCCCC2)c1 , please?
Result: 18.2

Ask: Could you do the same for CCS(=O)(=O)c1c(S(=O)(=O)CC)c2ccccn2c1C(N)=O , please?
Result: -1

Ask: Could you do the same for COc1cc(CC(C#N)(CO)c2nc3ccccc3[nH]2)ccc1OC(F)F (configuration not stated) , please?
Result: 16.3

Ask: Could you do the same for COC(=O)c1cc(=O)n(Cc2cccs2)c(=Nc2ccc(F)cc2)s1 , please?
Result: -2

Ask: Could you do the same for CCOC(=O)N1CCC(NS(=O)(=O)c2ccc3c(c2)oc(=O)n3C)CC1 , please?
Result: 12.9

Ask: Could you do the same for O=[N+]([O-])c1ccc(C[n+]2ccc(Cc3ccccc3)cc2)cc1 , please?
Result: 31.5

Ask: Could you do the same for CN1C(=O)C(Cl)(Cl)C(=O)c2ccccc21 , please?
Result: 68.4

Ask: Could you do the same for CCN(c1ccccc1)S(=O)(=O)c1ccc2[nH]cc(C(=O)N3CCOCC3)c(=O)c2c1 , please?
Result: 8.3

Ask: Could you do the same for COC(=O)c1ccccc1NC(=O)N[C@@H](C)C(=O)OC , please?
Result: -13.4

Ask: Could you do the same for CN(c1ccc(OCC(=O)OCC(=O)NC2CCCC2)cc1)S(=O)(=O)c1ccc2ccccc2c1 , please?
Result: 23.5

Ask: Could you do the same for CCCSc1cc(=O)n(-c2ccc(F)cc2)nc1C(=O)OCC , please?
Result: -6

Ask: Could you do the same for Cc1ccc(OCC(=O)N/N=C\c2cn(Cc3ccccc3)c3ccccc23)cc1C , please?
Result: 2.4

Ask: Could you do the same for O=[N+]([O-])c1ccccc1/C=N/n1c(-c2cccnc2)n[nH]c1=S , please?
Result: 3.5

Ask: Could you do the same for Cc1ccc(NS(=O)(=O)c2cc([N+](=O)[O-])ccc2NNC(=S)Nc2cc(C)ccc2C)c(C)c1 , please?
Result: 9.1

Ask: Could you do the same for CCOC(=O)c1nn(-c2ccccc2)c(C(=O)OCC)c1N , please?
Result: 10.9

Ask: Could you do the same for CC(NC(=O)COC(=O)CC(c1ccccc1)c1ccccc1)c1ccccc1 (configuration not stated) , please?
Result: 7.9

Ask: Could you do the same for COc1cc(/C=C/C(=O)N2CCCc3ccccc32)cc(OC)c1OC , please?
Result: -12.4

Ask: Could you do the same for CCCCCCCSc1nnc(-c2ccccc2N)c(=O)[nH]1 , please?
Result: 13.6

Ask: Could you do the same for CCN1C(=O)C(F)(CC)C(=O)c2ccccc21 (configuration not stated) , please?
Result: 4.2

Ask: Could you do the same for CC(C)Cn1nc(NC(=O)C2CCCO2)c2cc3ccccc3nc21 (configuration not stated) , please?
Result: 6.4

Ask: Could you do the same for CCOC(=O)c1c2ccc(OCC(=O)N/N=C/c3ccccc3C(F)(F)F)cc2n2ccccc12 , please?
Result: 64.2

Ask: Could you do the same for CCOC(=O)c1nn(-c2ccc(C)c(C)c2)c(=O)c2c(N)scc12 , please?
Result: 54.4

Ask: Could you do the same for CCOc1ccc(NC(c2ccccn2)c2oc(CO)cc(=O)c2O)cc1 (configuration not stated) , please?
Result: 51.1

Ask: Could you do the same for O=c1cc(CO)oc(C(Nc2cccc(C(F)(F)F)c2)c2ccccn2)c1O (configuration not stated) , please?
Result: 43.6

Ask: Could you do the same for Cc1ccc(NC(=S)N(Cc2ccco2)C2CCN(C(C)C)CC2)cc1 , please?
Result: -8.2

Ask: Could you do the same for O=C(Oc1cccc2cccnc12)c1ccc(N2C(=O)C3C4CCC(C4)C3C2=O)cc1 (configuration not stated) , please?
Result: 50.5

Ask: Could you do the same for O=C(COC(=O)Cc1ccccc1[N+](=O)[O-])NC1CCCC1 , please?
Result: 55.4

Ask: Could you do the same for COc1ccc(OC)c(S(=O)(=O)Nc2ccccc2C)c1 , please?
Result: 10.8

Ask: Could you do the same for CC(NC(=O)COC(=O)Cc1ccccc1[N+](=O)[O-])c1ccccc1 (configuration not stated) , please?
Result: 51.3

Ask: Could you do the same for Cc1ccc(C(=O)Oc2ccccc2N2C(=O)C3C4CCC(C4)C3C2=O)cc1 (configuration not stated) , please?
Result: 0.7

Ask: Could you do the same for NC(=O)C1CCN(C(=O)c2cc3n(n2)C(C(F)(F)F)CC(c2ccco2)N3)CC1 (configuration not stated) , please?
Result: 0.3

Ask: Could you do the same for CC1CCC2C(=O)N(c3ccc(C(=O)Oc4cccc5cccnc45)cc3)C(=O)C2C1 (configuration not stated) , please?
Result: 48.7

---

molecular target: Mannose-6-phosphate isomerase (Homo sapiens) (UniProt P34949); assay: MPI inhibition at elevated mannose 6-phosphate – biochemical, fluorescence intensity, high mannose 6-phosphate, primary screen (AID 1220); conditions: recombinant PMI enzyme, coupled fluorescence intensity; at 20 µM
Out of some 190,000 compounds screened, about 1,300 (0.68%) were called active. Rule as the data show it: active = inhibition above about 50%; inactive = the rest. This is one part of a sample in which actives are shown more often than they occur.
Response enum: class 1 = active, class 0 = inactive

Ask: What is the recorded call for this compound in the test? CCOc1cc(/C=C2\C(=O)N(CCc3ccc(OC)c(OC)c3)C(C)=C2C(=O)OC)ccc1O
Result: class 1

Ask: Could you do the same for COC(=O)c1nnn(-c2nc(N3CCOCC3)nc(N3CCOCC3)n2)c1C , please?
Result: class 0

Ask: Could you do the same for C=CCOc1cccc(/C=C2\C(=O)N(Cc3ccc(C)cc3)C(C)=C2C(=O)OC)c1 , please?
Result: class 0

Ask: Could you do the same for COC(=O)C1=C(C)N(Cc2ccc(C)cc2)C(=O)/C1=C\c1ccc(O)c(OC)c1 , please?
Result: class 1
